Measured pEC50 accompanies every entry in the list below.
Biological target: T1, human LIV-1 (human, UniProt Q13433 29-755)
T1 construct: whole, on cells; also called H-LIV1
T1 sequence (looked up): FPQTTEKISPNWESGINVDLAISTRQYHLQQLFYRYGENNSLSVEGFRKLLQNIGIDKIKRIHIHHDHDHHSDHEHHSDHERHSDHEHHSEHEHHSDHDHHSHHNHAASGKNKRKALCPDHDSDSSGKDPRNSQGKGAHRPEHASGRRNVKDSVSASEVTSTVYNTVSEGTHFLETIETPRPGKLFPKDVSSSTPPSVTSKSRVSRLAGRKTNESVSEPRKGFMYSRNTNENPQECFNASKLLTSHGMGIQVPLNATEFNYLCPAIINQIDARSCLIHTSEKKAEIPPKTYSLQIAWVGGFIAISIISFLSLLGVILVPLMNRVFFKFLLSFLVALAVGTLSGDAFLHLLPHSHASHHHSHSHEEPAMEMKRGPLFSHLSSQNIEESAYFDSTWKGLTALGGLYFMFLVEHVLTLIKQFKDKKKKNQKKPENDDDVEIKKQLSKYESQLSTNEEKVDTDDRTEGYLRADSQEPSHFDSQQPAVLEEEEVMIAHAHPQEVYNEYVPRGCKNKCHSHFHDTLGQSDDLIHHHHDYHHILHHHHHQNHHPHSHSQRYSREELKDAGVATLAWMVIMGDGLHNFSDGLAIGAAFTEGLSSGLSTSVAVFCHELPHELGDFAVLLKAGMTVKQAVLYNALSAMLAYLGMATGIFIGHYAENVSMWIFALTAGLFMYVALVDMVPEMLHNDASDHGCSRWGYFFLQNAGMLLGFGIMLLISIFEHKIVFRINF
Experiment: FACS, HEK293/H_LIV-1 cells
API: returns pEC50 as number; meaning -log10 of concentration in mol/L.

Consider the reported pEC50 for these binders:
binder: 127A2B9 (antibody, V domains shown, Tested as chimeric antibody) VH: EVQLQESGPSLVKPSQTLSLTCSVTGDSITSGYWNWIRKLPGNKLEYMGYISYSGSTYYNPSLKSRISITRDTSKNQYYLQLNSVTTEDTATYYCARIYYDYDGYFDVWGAGTTVTVSS VL: DIVMTQAAPSVPVTPGESVSISCRSSKSLLHSNGNTFLYWFLQRPGQSPQLLIYRMSNLASGVPDRFSGSGSGTAFTLRISRVEAEDVGVYYCMQHLEYPYTFGGGTKLEIK
measurement.name: pEC50
reported: 8.39
--
binder: 90H4F8 (antibody, V domains shown, Tested as chimeric antibody) VH: QVQLQQSGPELVKPGASVRISCKASGYTFTSYHMHWVKQRPGQGLEWIGWIYPGNVKNQSNEKFKGKATLTADKSSSTAYMHLSSLTSEDSAVYFCARSDITRAFFAYWGQGTLVTVSA VL: DVLMTQTPLSLPVSLGDQASISCRSSQSIVHSNGNTYLEWYLQKPGQSPKLLIYKVSNRFSGVPDRFSGSGSGTDFTLKISRVEAEDLGVYYCFQGSHGPYTFGGGTKLEIK
measurement.name: pEC50
reported: 8.97
--
binder: 79F5G5 (antibody, V domains shown, Tested as chimeric antibody) VH: EVQLQQSGAELVRSGASVKLSCTASGFNIKDYYMHWVKQRPEQGLEWIGWIDPENGDTEYAPKFQGKATLTADTSSNTAYLQLSSLTFEDTAVYYCPHGGGLRVFDYWGQGTSLTVSS VL: DVLMTQIPLSLSVSLGDQASISCRSSQSIVHSNGNTYLEWYLQKPGQSPKLLIYKVSNRFSGVPDRFSGSGSGTDFTLKISRVEAEDLGVYYCFQGSHVPWTFGGGTKLEIK
measurement.name: pEC50
reported: 8.02

pEC50 lookup needed for 99B3E8 (antibody, V domains shown, Tested as chimeric antibody) VH: EVQLQQSGTVLARPGTSVKMSCKASGYTFINYWMHWVRQRPGQGLEWIGAFYPGNSDTSYNQNFKDKAKLTAVTSTSTAYMEFSSLTNEDSAVYYCTRDFTAVPFFDYWGQGTTLTVSS VL: DVLMTQTPLSLPVSLGDQASISCRSSQSIVHSNGNTYLEWYLQKPGQSPKLLIYKVSNRFSGVPDRFSGSGSGTDFTLKISRVEAEDLGVYYCFQGSYVPLTFGVGTKLELK , thanks.
8.98

Value lookup for pEC50; key = 72B12F1 (antibody, V domains shown, Tested as chimeric antibody) VH: EVQLQQSGAELVKPGASVKLSCTASGFNIKDTYMHWVKQRPEQGLEWIGRIDPANGNTKNDPRFQGKATITADTSSNTAYLQLSRLTSEDTAVYYCAGGGITTVVPDHWGQGTTLTVSS VL: DVVMTQTPLSLPVSLGDQASISCRSSQSLVHSNGNTYLQWYLQKPGQSPKLLIYKVSNRFSGVPDRFSGSGSGTDFTLKISRVEAEDLGVYFCSQSTHVPYTFGGGTKLEIK
9.10

Value lookup for pEC50; key = 109C9D4 (antibody, V domains shown, Tested as chimeric antibody) VH: EVKLVESGGGLVQPGGSRKLSCAASGFTFSDYGMAWVRQAPGKGPEWVTFISNLAYSIYYADTVTGRFTISRENAKNTLYLEMSSLRSEDTAMYYCARVEENGNYFDYWGQGTTLTVSS VL: DIQMTQTTSSLSASLGDRVTIRCRASQDIGIYLHWYQQKPDGTVKLLIYYTSRLHSGVPSRFSGSRSGTDYSLTIGNLEQEDIATYFCLQGNTIPPTFGGGTKLEIK
9.37

Dear colleague, I am looking for the recorded pEC50 of the following binder: 82C7C7 (antibody, V domains shown, Tested as chimeric antibody) VH: EVQLQQSGAELVKPGASIKLSCTPSGFNIKDTFIHWVKQRPEQGLEWIGRIDPANGNTRYDPKFQGKATITADTSSNTAYLQLISLTSEDTAVYYCAGGSISTVVPDYWGQGTTLTVSS VL: DVVVTQTPLSLPVSLGDQASISCRSSQSLVHNNGNTYLHWYLQKPGQSPKLLIYKVSNRFSGVPDRFSGSGSGTDFTLKISRVEAEDLGVYFCSQSTHVPYTFGGGTKLEIK
9.21

Report pEC50 for 39D10B2 (antibody, V domains shown, Tested as chimeric antibody) VH: QVQLKQSGPGLVQPSQSLSITCTVSGFSLTTYGVHWVRQSPGKGLEWLGVIWTGGTTDYNAAFISRLSISKDNSKSQVFFKMNSLQANDTAMYYCARGPSSYWGQGTLVTVSA VL: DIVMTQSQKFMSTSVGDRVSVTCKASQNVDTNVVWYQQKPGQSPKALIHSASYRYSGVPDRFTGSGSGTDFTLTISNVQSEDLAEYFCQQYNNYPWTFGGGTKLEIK please.
9.62

Which pEC50 reading was recorded for the binder 136F3D10C10 (antibody, V domains shown, Tested as chimeric antibody) VH: QVQLQQSGPELVKPGASVRIFCKASGYTFTSFHIHWVKQRPGQGLEWIGWIYPGNDNTDHNEKFKGKATLSADKSSSTVYMQLSSLTSEDSAVYFCGRSNYYGPLFAYWGQGTLVTVSA VL: DILMTQTPLSLPVSLGDQASISCRSSQNIVRSNGNTYLEWYLQKPGQSPKVLIYRVSNRFSGVPDRFSGSGSGTDFTLKISRVEAEDLGVYYCFQGSYVPYTFGGGTKLEIK ?
9.07

Which pEC50 reading was recorded for the binder 112H11C12 (antibody, V domains shown, Tested as chimeric antibody; also called 112H1C12) VH: QVQLQQPGAELVRPGASVKLSCKASGYTFTSYWMNWVKQRPGQGLKWIGMIDPSNSKTHYNQMFKDKATLTVDKSSNTAYMQLSSLTSEDSAVYYCARTSTTMATFAYWGQGTLVSVSA VL: DVLMTQTPLSLPVSLGDQASISCRSSQSIVHSNGNTYLEWYLQKPGQSPKLLIYKVSNRFSGVPDRFSGSGSGTDFTLKISRVEAEDLGVYYCFQASHFPLTFGAGTELDLN ?
7.68

These data points were gathered from patent US20240325555A1.
